Ki reference
# Target Under Test: human μ-opioid receptor (Homo sapiens, UniProt P35372)
# Construct: expressed in transfected cells; host or cells: CHO-K1
# Sequence (P35372 whole entry): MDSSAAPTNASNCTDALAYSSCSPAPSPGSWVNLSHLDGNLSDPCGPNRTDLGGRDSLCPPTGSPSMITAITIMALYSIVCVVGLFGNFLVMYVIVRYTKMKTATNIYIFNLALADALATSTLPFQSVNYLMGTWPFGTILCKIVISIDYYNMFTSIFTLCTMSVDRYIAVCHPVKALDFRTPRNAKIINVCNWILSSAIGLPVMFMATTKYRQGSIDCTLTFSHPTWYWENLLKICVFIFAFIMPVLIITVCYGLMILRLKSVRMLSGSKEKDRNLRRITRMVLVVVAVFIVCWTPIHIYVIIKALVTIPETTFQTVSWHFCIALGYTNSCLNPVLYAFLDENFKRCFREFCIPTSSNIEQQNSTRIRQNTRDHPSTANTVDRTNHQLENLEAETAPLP
# Assay Comment: Human μ-opioid receptor radioligand assay ([3H]-DAMGO)
# Assay type: binding

# count of solved cases: 6
Molecule	Data Value
C[C@H](N)c1cc(Cc2ccc(O)cc2)n(-c2ccc(Cl)cc2Cl)n1	< 100 nM
COc1ccc(Cc2cc(C(C)N)nn2-c2ccc(Cl)cc2Cl)cc1 (stereo not shown)	100 to 500 nM
COc1ccc(Cc2cc(CN)nn2-c2ccc(OC)cc2Cl)cc1	100 to 500 nM
NC(CO)c1cc(Cc2ccc(O)cc2)n(-c2ccc(Cl)cc2Cl)n1 (stereo not shown)	100 to 500 nM
CCCC(N)c1cc(Cc2ccc(O)c(F)c2)n(-c2ccc(Cl)cc2Cl)n1 (stereo not shown)	< 100 nM
CC(N)c1cc(Cc2ccc(O)c(F)c2)n(-c2ccc(Cl)cc2Cl)n1 (stereo in doubt) [Example 64]	> 500 nM

Value wanted: Ki (human μ-opioid receptor (Homo sapiens, UniProt P35372)) of entry NC(CN1CCCCC1)c1cc(Cc2ccc(O)cc2)n(-c2ccc(Cl)cc2Cl)n1 (stereo not shown) 100 to 500 nM

API: value(readout=Ki, system=human μ-opioid receptor (Homo sapiens, UniProt P35372)) for record `NCc1cc(Cc2ccc(O)cc2)n(-c2ccc(Cl)cc2Cl)n1` < 100 nM

# get_value(readout= Ki, system= human μ-opioid receptor (Homo sapiens, UniProt P35372)) for CC(N)c1cc(Cc2ccc(O)c(F)c2)n(-c2ccc(Cl)cc2Cl)n1 (stereo in doubt) [Example 63] > 500 nM

Enter reported Ki observed with human μ-opioid receptor (Homo sapiens, UniProt P35372) for CC(N)c1cc(Cc2ccc(O)cc2)n(C2CCCCC2)n1 (stereo not shown) > 500 nM

Find Ki (human μ-opioid receptor (Homo sapiens, UniProt P35372)) for the entry CC(N)c1cc(Cc2ccc(O)cc2)n(-c2ccc(Cl)cc2Cl)n1 (stereo not shown) < 100 nM

Look up Ki with human μ-opioid receptor (Homo sapiens, UniProt P35372) for this molecule: CC(N)c1cc(Cc2ccc(O)c(F)c2)n(-c2ccc(Cl)cc2Cl)n1 (stereo not shown) [Example 52] < 100 nM

Item NC(CC(=O)O)c1cc(Cc2ccc(O)cc2)n(-c2ccc(Cl)cc2Cl)n1 (stereo not shown) with human μ-opioid receptor (Homo sapiens, UniProt P35372) - Ki? 100 to 500 nM

Give the reported Ki for `NCc1cc(Cc2ccc(O)cc2)n(-c2ccc(O)cc2Cl)n1` (system: human μ-opioid receptor (Homo sapiens, UniProt P35372)). < 100 nM

---

# Target Under Test: Human α2δ-1 subunit of Cav2.2 calcium channel (Homo sapiens)
# Sequence (P54289 25-1103): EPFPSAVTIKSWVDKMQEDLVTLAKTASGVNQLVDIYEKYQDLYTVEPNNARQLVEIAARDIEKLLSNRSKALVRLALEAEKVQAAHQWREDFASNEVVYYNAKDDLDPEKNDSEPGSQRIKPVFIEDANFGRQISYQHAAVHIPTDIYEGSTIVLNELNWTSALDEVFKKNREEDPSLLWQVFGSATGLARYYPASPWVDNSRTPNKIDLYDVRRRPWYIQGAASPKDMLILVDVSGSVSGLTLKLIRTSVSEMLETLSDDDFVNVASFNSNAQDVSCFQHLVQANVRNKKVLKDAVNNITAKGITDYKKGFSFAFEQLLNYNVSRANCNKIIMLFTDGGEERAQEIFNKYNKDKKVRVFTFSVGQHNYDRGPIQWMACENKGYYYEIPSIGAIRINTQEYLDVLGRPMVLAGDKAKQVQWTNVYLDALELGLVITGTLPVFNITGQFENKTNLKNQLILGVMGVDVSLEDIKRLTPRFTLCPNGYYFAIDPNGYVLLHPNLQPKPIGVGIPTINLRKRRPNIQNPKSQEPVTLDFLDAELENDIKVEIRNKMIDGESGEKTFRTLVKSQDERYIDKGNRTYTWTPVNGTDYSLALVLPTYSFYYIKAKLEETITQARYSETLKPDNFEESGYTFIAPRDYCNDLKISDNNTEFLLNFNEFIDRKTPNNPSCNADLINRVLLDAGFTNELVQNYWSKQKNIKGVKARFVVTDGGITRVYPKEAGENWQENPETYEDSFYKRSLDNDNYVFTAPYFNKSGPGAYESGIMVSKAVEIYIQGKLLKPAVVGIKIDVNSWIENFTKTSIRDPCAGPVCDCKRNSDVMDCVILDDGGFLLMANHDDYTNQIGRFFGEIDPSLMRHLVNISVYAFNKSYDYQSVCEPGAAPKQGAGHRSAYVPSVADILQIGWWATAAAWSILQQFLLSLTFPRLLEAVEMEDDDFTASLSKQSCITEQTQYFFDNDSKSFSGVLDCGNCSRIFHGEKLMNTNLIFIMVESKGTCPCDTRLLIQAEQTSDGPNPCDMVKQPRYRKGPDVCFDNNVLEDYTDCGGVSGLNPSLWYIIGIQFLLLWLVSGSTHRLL
# Assay Comment: Human α2δ-1 subunit of Cav2.2 calcium channel assay ([3H]-Gabapentin binding)
# Measurement Context: human α2δ-1 enriched membranes, 15 nM [3H]-Gabapentin; read-out: α2δ-1 binding
pKi: −log10 of the molar value.
Catalogue of pKi readings, one per entry.

These solved cases illustrate the format of a correct answer.
Molecule	Data Value
NCc1cc(Cc2ccccc2)n(-c2ccc(Cl)cc2Cl)n1	5.52 to 6.30
NC(CN1CCOCC1)c1cc(Cc2ccc(O)cc2)n(-c2ccc(Cl)cc2Cl)n1 (stereo not shown)	< 5.30
CCOc1ccc(Cc2cc(C(C)N)nn2-c2ccc(Cl)cc2Cl)cc1 (stereo not shown)	5.52 to 6.30

Requested read-out: pKi. Entry: `CNCc1cc(Cc2ccc(OC)cc2)n(-c2ccc(Cl)cc2Cl)n1` 5.30 to 5.52

Consider the molecule shown here: `NCc1cc(Cc2ccc(O)cc2)n(-c2ccccc2Cl)n1` What is its recorded pKi? 5.52 to 6.30

State the recorded pKi for this entry: `NCc1cc(Cc2ccc(O)cc2)n(-c2ccccn2)n1` < 5.30

# query: pKi of entry `NCc1cc(Cc2ccc(O)cc2)n(Cc2ccc(Cl)cc2)n1` 5.52 to 6.30

# query: pKi of entry `COc1ccc(-n2nc(CN)cc2Cc2ccc(O)cc2)cc1` 5.30 to 5.52

Reported pKi, molecule `NCc1cc(Cc2ccccc2)n(-c2ccc(O)cc2)n1` : ____ 5.30 to 5.52

Which measured pKi value corresponds to CC(N)c1cc(Cc2ccc(O)cc2)n(CCc2ccccc2)n1 (stereo not shown) ? < 5.30
